# experimental system: IRAK4 (Homo sapiens (Human))
# Sequence (Q9NWZ3 whole entry, species assumed): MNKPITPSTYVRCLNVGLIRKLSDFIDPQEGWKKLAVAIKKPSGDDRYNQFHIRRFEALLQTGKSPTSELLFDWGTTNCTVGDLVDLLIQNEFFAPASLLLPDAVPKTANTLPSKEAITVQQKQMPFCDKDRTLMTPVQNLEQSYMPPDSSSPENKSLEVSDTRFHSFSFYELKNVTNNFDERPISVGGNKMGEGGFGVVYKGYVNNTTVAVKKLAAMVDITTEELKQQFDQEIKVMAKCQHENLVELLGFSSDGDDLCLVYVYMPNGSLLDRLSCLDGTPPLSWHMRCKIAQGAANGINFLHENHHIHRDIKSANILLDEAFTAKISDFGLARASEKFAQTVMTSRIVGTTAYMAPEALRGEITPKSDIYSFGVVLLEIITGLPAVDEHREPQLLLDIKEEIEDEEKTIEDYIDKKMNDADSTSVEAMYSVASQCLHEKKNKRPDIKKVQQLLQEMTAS
pIC50: −log10 of the molar value.
readout kind: pIC50

# annotated cases, reported pIC50 shown
compound	pIC50
CC(C)(O)[C@H](F)CNC(=O)c1cnc(Nc2ccc3ncsc3c2)cc1N[C@H]1CCCC(O)C1 (stereo partly shown)	8.01
CCC(C)Nc1cc(Nc2ccn3nccc3n2)ncc1C(=O)NC[C@@H](F)C(C)(C)O (stereo partly shown)	8.37

(A) CC(C)(O)[C@@H](F)CNC(=O)c1cnc(Nc2ccc3ncsc3c2)cc1NC1CC1
(B) CC(Nc1cc(Nc2ccc3ncsc3c2)ncc1C(=O)NC[C@@H](F)C(C)(C)O)C(F)(F)F (stereo partly shown)
Rank A against B by their pIC50 values and give the higher one. I would appreciate it if you answered with the label of your choice. B
